# Tested on: SARS-CoV-2 RG-2675 (South Africa)
# Assay Text: Cytopathic effect reduction, SARS-CoV-2 RG-2675 (South Africa) in Vero cells
# Type: cell-based
# Experimental Parameters: Severe acute respiratory syndrome coronavirus 2, Vero, read-out: Antiviral Activity (EC50) RG-2675 (South Africa)
Kindly state EC50 for each of the entries shown.
One number for each entry, in µM.

COc1ccc(C(OC[C@H]2O[C@@H](n3ccc4nc5cc(O)ccc5n4c3=O)C[C@@H]2O)(c2ccccc2)c2ccc(OC)cc2)cc1 [Compound 3a] :: 9.1

Can you give me EC50 for all of these, one by one?
1. CC(C)C(=O)OC[C@H]1O[C@@H](n2ccc(NO)nc2=O)[C@H](O)[C@@H]1O [Molnupiravir]
2. CCC(CC)COC(=O)[C@H](C)N[P@](=O)(OC[C@H]1O[C@@](C#N)(c2ccc3c(N)ncnn23)[C@H](O)[C@@H]1O)Oc1ccccc1 [Remdesivir, reference compound]

A.
[5.18, 1.31]
